# Tested on: BGC-823
# run_description: Cytotoxicity against human BGC823 cells after 48 hrs by MTT assay
# Assay type: functional, cell-based
# conditions: BGC-823, 48 h
pIC50: −log10 of the molar value.
Quick rule: pIC50 of at least 5 means 1.0, below that means 0.0.

Some solved cases for reference:
molecule	class_assignment
COC(=O)/C(C)=C\C[C@@]12OC(C)(C)[C@@H]3C[C@@H](C=C4C(=O)c5c(OC)c6c(c(CC=C(C)C)c5O[C@]431)O[C@](C)(CC/C=C(\C)CO)C=C6)C2=O	1.0
C/C(=C/C[C@@]12OC(C)(C)[C@@H]3C[C@@H](C=C4C(=O)c5c(O)c6c(c(C/C=C(\C)CO)c5O[C@]431)O[C@](C)(CC/C=C(\C)C=O)C=C6)C2=O)C(=O)O	1.0
COC(=O)/C(C)=C\C[C@@]12OC(C)(C)[C@@H]3C[C@@H](C=C4C(=O)c5c(OC)c6c(c(CC=C(C)C)c5O[C@]431)O[C@](C)(CCC1OC1(C)C)C=C6)C2=O (stereo partly drawn)	1.0
COC(=O)/C(C)=C\C[C@@]12OC(C)(C)[C@@H]3C[C@@H](C=C4C(=O)c5c(OC)c6c(c(CC=C(C)C)c5O[C@]431)O[C@](C)(CC[C@@H](O)C(C)(C)O)C=C6)C2=O	0.0
CC(C)=CCC[C@]1(C)C=Cc2c(O)c3c(c(CC=C(C)C)c2O1)O[C@]12[C@H]4C[C@H](C(=O)[C@]1(C/C=C(/C)C(=O)O)OC4(C)C)C(O)C2(O)C3=O (stereo partly drawn)	0.0
C/C(=C/C[C@@]12OC(C)(C)[C@@H]3C[C@@H](C=C4C(=O)c5c(O)c6c(c(CC7OC7(C)C)c5O[C@]431)O[C@](C)(CCC1OC1(C)C)C=C6)C2=O)C(=O)O (stereo partly drawn)	1.0

Please tell me: is the molecule CC(C)=CCC[C@]1(C)C=Cc2c(O)c3c(c(C/C=C(\C)CO)c2O1)O[C@]12C(=C[C@@H]4C[C@H]1C(C)(C)O[C@@]2(C/C=C(/C)C(=O)O)C4=O)C3=O at or over 5 in terms of pIC50?
1.0

Please do the same for COC(=O)/C(C)=C\C[C@@]12OC(C)(C)[C@@H]3C[C@@H](C=C4C(=O)c5c(OC)c6c(c(CC=C(C)C)c5O[C@]431)O[C@](C)(CC/C=C(\C)COC(C)=O)C=C6)C2=O as well.
1.0
